# testMethodNotes: Lipophilicity, log D of the compound at pH 7.4
# Assay type: physicochemical
# setupConditions: buffer
Please enter t where logD is greater than or equal to 5, and f where it is lower.

compound="CC(Nc1ccc2c(c1)OCCO2)C(=O)Nc1ccc(Cl)cc1 (configuration not stated)" classification=t
compound="O=C1C(Cc2ccc3c(c2)OCCO3)CCCN1c1ccc(Br)cc1 (configuration not stated)" classification=t
compound="CNC(=O)c1ccc(NC(=O)C(C)Nc2ccc3c(c2)OCCO3)cc1 (configuration not stated)" classification=f
compound="COc1ccc(NC(C)C(=O)Nc2ccc(Br)cc2)cc1OC (configuration not stated)" classification=t
compound="CCC(Nc1ccc2c(c1)OCCO2)C(=O)Nc1ccc(Br)cc1 (configuration not stated)" classification=t
compound="CC(Nc1ccc2c(c1)NCCC2)C(=O)Nc1ccc(Br)cc1 (configuration not stated)" classification=t
compound="CC(Nc1ccc2c(c1)OCCO2)C(=O)Nc1ccc(Br)nc1 (configuration not stated)" classification=f
compound="CC(Oc1ccc2c(c1)OCCO2)C(=O)Nc1ccc(Br)cc1 (configuration not stated)" classification=t
compound=C[C@@H](Nc1ccc2c(c1)OCCO2)C(=O)Nc1ccc(Br)cc1 classification=t
compound="CC(Nc1ccc(Br)cc1)C(=O)Nc1ccc2c(c1)OCCO2 (configuration not stated)" classification=t
compound="CC(Nc1ccc2c(c1)OCCO2)C(=O)Nc1ccc2cn[nH]c2c1 (configuration not stated)" classification=f
compound="CC(Nc1ccc2c(c1)OCCO2)C(=O)Nc1ccc(Br)cn1 (configuration not stated)" classification=t

---

# pIC50 values compiled below
# testMethodNotes: Inhibition of Mycobacterium tuberculosis DprE1
resultType: pIC50

molecule="CC(Nc1ccc2c(c1)OCCO2)C(=O)Nc1ccc(C#N)cc1 (stereo unspecified)" resulttype=pIC50 quantitativereadout=5.7
molecule="CC(Nc1ccc2c(c1)OCCO2)C(=O)Nc1ccc(Cl)cc1 (stereo unspecified)" resulttype=pIC50 quantitativereadout=6.4
molecule="COc1cccc(NC(C)C(=O)Nc2ccc(Br)cc2)c1 (stereo unspecified)" resulttype=pIC50 quantitativereadout=5.8
molecule="CC(C(=O)Nc1ccc(Br)cc1)N(C)c1ccc2c(c1)OCCO2 (stereo unspecified)" resulttype=pIC50 quantitativereadout=7.2
molecule="CC(Oc1ccc2c(c1)OCCO2)C(=O)Nc1ccc(Br)cc1 (stereo unspecified)" resulttype=pIC50 quantitativereadout=6.7
molecule="CCC(Nc1ccc2c(c1)OCCO2)C(=O)Nc1ccc(Br)cc1 (stereo unspecified)" resulttype=pIC50 quantitativereadout=5.4

---

# testMethodNotes: Inhibition of Mycobacterium tuberculosis DprE1
Please enter yes where pIC50 is greater than or equal to 5, and no where it is lower.

compound="CC(Nc1ccc2c(c1)OCCCO2)C(=O)Nc1ccc(Br)cc1 (stereo unspecified)" classification=yes
compound="CC(Nc1ccc(Br)cc1)C(=O)Nc1ccc(Br)cc1 (stereo unspecified)" classification=yes
compound="CC(Nc1ccc2c(c1)OCCO2)C(=O)Nc1ccc2cc[nH]c2c1 (stereo unspecified)" classification=yes
compound="CC(Nc1ccc2c(c1)OCCO2)C(=O)Nc1nc2ccccc2[nH]1 (stereo unspecified)" classification=yes
compound="COc1cc(NC(C)C(=O)Nc2ccc(Br)cc2)cc(OC)c1 (stereo unspecified)" classification=no
compound="CC(Nc1ccc2c(c1)OCCO2)C(=O)N(C)C (stereo unspecified)" classification=no
compound="COc1ccc(NC(C)C(=O)Nc2ccc(Br)cc2)cc1OC (stereo unspecified)" classification=yes
compound="CC(Cc1ccc2c(c1)OCCO2)C(=O)Nc1ccc(Br)cc1 (stereo unspecified)" classification=yes
compound="CC(Nc1ccc2c(c1)NCCC2)C(=O)Nc1ccc(Br)cc1 (stereo unspecified)" classification=yes
compound="CC(Nc1ccc2c(c1)OCC(=O)N2)C(=O)Nc1ccc(Br)cc1 (stereo unspecified)" classification=no
compound="CC(C)C(Nc1ccc2c(c1)OCCO2)C(=O)Nc1ccc(Br)cc1 (stereo unspecified)" classification=no
